# measured target: LK35.2-hPD-L1 cells / PE-labeled PD-1-Ig (Homo sapiens, UniProt Q9NZQ7)
# Construct: expressed in transfected cells; host or cells: LK35.2 mouse B cell line
# Sequence (Q9NZQ7 19-290): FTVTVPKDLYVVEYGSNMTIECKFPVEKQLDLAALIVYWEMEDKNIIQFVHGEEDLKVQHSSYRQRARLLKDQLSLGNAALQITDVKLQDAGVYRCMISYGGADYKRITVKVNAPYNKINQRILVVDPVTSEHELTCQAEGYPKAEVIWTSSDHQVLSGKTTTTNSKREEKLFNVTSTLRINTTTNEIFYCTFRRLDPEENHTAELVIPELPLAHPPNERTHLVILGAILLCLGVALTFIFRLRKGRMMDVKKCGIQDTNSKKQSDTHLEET
# experimental details: LK35.2-hPD-L1 cell binding high-content screening assay
# Type: cell-based
# reported conditions: cell binding assay, cell line not given; cluster symbol; read-out: CBA IC50 cluster
Positions of bridges follow the written chain, without caps; N, C: chain ends. Non-standard residues stand in square brackets, D forms with d. Residues, ends and D or L forms follow the SMILES beside them. ξ: configuration not given here. Bta = N[C@@H](Cc1csc2ccccc12)C(=O)O; Hyp = O=C(O)[C@@H]1C[C@@H](O)CN1; NMeNle = CCCC[C@H](NC)C(=O)O; NMeS = CN[C@@H](CO)C(=O)O; NMeA = CN[C@@H](C)C(=O)O; ξC = NC(CS)C(=O)O
property measured: IC50

Ask: Requested read-out: IC50. Entry: CCCC[C@H]1C(=O)N(C)[C@@H](CO)C(=O)N[C@@H](CCCNC(=N)N)C(=O)NC(C(=O)NCC(N)=O)CSCC(=O)N[C@@H](Cc2ccc(O)cc2)C(=O)N(C)[C@@H](C)C(=O)N[C@@H](CC(N)=O)C(=O)N2CCC[C@H]2C(=O)N[C@@H](Cc2cnc[nH]2)C(=O)N[C@@H](CC(C)C)C(=O)N2C[C@H](O)C[C@H]2C(=O)N[C@@H](Cc2c[nH]c3ccccc23)C(=O)N[C@@H](CO)C(=O)N[C@@H](Cc2csc3ccccc23)C(=O)N1C (stereo partly shown) [Example 9033] ({CH2CO}-Y[NMeA]NPHL[Hyp]WS[Bta][NMeNle][NMeS]R[ξC]G-NH2; thioether N-14)
Result: 0.158 to 4.71 nM

====

# measured target: Human PD-L1/PD-1 (Homo sapiens)
# Construct: made in house; host or cells: HEK293T
# Sequence (Q9NZQ7 with tags, fused parts or gaps): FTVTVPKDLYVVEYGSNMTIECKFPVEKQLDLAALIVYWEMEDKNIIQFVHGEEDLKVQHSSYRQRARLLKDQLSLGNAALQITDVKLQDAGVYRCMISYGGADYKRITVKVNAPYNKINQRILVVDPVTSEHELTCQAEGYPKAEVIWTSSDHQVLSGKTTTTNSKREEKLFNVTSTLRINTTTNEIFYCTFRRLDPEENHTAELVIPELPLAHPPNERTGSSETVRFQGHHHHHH
# experimental details: HTRF PD-1-Ig/PD-L1-His binding assay (human PD-L1)
# reported conditions: cluster symbol; read-out: HTRF IC50 cluster
Positions of bridges follow the written chain, without caps; N, C: chain ends. Non-standard residues stand in square brackets, D forms with d. Residues, ends and D or L forms follow the SMILES beside them. Phe(4-CF3) = N[C@@H](Cc1ccc(C(F)(F)F)cc1)C(=O)O; NMeF = CN[C@@H](Cc1ccccc1)C(=O)O; NMeNle = CCCC[C@H](NC)C(=O)O; NMeA = CN[C@@H](C)C(=O)O; Sar = CNCC(=O)O
property measured: IC50

{"compound": "CCCC[C@H]1C(=O)N(C)[C@@H](CCCC)C(=O)N[C@@H](CCCNC(=N)N)C(=O)N[C@H](C(=O)NCC(N)=O)CSCC(=O)N[C@@H](Cc2ccccc2)C(=O)N(C)[C@@H](C)C(=O)N[C@@H](CC(N)=O)C(=O)N2CCC[C@H]2C(=O)N[C@@H](CO)C(=O)N[C@@H](CC(C)C)C(=O)N(C)CC(=O)N[C@@H](Cc2c[nH]c3ccccc23)C(=O)N[C@@H](CO)C(=O)N[C@@H](Cc2c[nH]c3ccccc23)C(=O)N1C [Example 1088] ({CH2CO}-F[NMeA]NPSL[Sar]WSW[NMeNle][NMeNle]RCG-NH2; thioether N-14)", "value measured": "6.76 to 30.3 nM"}

Please turn your attention to the following entry.
Ask: Entry under review: CCCC[C@H]1C(=O)N(C)CC(=O)N[C@@H](CC(=O)O)C(=O)N[C@@H](C(C)C)C(=O)N(C)[C@@H](Cc2ccccc2)C(=O)N[C@@H](Cc2ccc(O)cc2)C(=O)N(C)CC(=O)N[C@@H](Cc2c[nH]c3ccccc23)C(=O)N[C@@H](Cc2ccc(O)cc2)C(=O)N[C@@H](CC(C)C)C(=O)N[C@H](C(=O)NCC(N)=O)CSCC(=O)N[C@@H](Cc2ccc(C(F)(F)F)cc2)C(=O)N(C)[C@@H](Cc2ccccc2)C(=O)N1C [Example 3093] ({CH2CO}-[Phe(4-CF3)][NMeF][NMeNle][Sar]DV[NMeF]Y[Sar]WYLCG-NH2; thioether N-13) . Reported IC50?
Result: > 30.5 nM

====

# measured target: Human PD-L1/PD-1 (Homo sapiens)
# Construct: made in house; host or cells: HEK293T
# experimental details: HTRF PD-1-Ig/PD-L1-His binding assay (human PD-L1)
# reported conditions: cluster symbol; read-out: HTRF IC50 cluster
Positions of bridges follow the written chain, without caps; N, C: chain ends. Non-standard residues stand in square brackets, D forms with d. Residues, ends and D or L forms follow the SMILES beside them. Phe(4-Cl) = N[C@@H](Cc1ccc(Cl)cc1)C(=O)O; Bta = N[C@@H](Cc1csc2ccccc12)C(=O)O; NMeF = CN[C@@H](Cc1ccccc1)C(=O)O; NMeNle = CCCC[C@H](NC)C(=O)O; NMeA = CN[C@@H](C)C(=O)O; Aib = CC(C)(N)C(=O)O; Sar = CNCC(=O)O
Each entry below lists one item and its recorded IC50 value.

{"compound": "CCCC[C@H]1C(=O)N(C)CC(=O)N[C@@H](CC(=O)O)C(=O)N[C@@H](C(C)C)C(=O)N(C)[C@@H](Cc2ccccc2)C(=O)N[C@@H](Cc2ccc(O)cc2)C(=O)N(C)CC(=O)N[C@@H](Cc2csc3ccccc23)C(=O)N[C@@H](Cc2ccc(O)cc2)C(=O)N[C@@H](CC(C)C)C(=O)N[C@H](C(=O)NCC(N)=O)CSCC(=O)N[C@@H](Cc2ccc(Cl)cc2)C(=O)N(C)[C@@H](Cc2ccccc2)C(=O)N1C [Example 3115] ({CH2CO}-[Phe(4-Cl)][NMeF][NMeNle][Sar]DV[NMeF]Y[Sar][Bta]YLCG-NH2; thioether N-13)", "value measured": "6.76 to 30.3 nM"}

Read the next record carefully.
Ask: Test system Human PD-L1/PD-1 (Homo sapiens); read-out IC50; what value for CCCC[C@H]1C(=O)N(C)[C@@H](CCCC)C(=O)N[C@@H](CCCNC(=N)N)C(=O)N[C@H](C(=O)NCC(N)=O)CSCC(=O)N[C@@H](Cc2ccccc2)C(=O)N(C)[C@@H](C)C(=O)N[C@@H](CC(N)=O)C(=O)N2CCC[C@H]2C(=O)N[C@@H](Cc2cnc[nH]2)C(=O)N[C@@H](CC(C)C)C(=O)N(C)CC(=O)N[C@@H](Cc2c[nH]c3ccccc23)C(=O)NC(C)(C)C(=O)N[C@@H](Cc2c[nH]c3ccccc23)C(=O)N1C [Example 1116] ({CH2CO}-F[NMeA]NPHL[Sar]W[Aib]W[NMeNle][NMeNle]RCG-NH2; thioether N-14) ?
Result: > 30.5 nM

====

Attribute: pIC50
# measured target: Hu PD-L1/PD-1 (Homo sapiens, UniProt Q9NZQ7)
# Sequence (Q9NZQ7 19-290): as the sequence (Q9NZQ7 19-290) above
# experimental details: Cell binding assay Hu PD-L1/PD-1 (Tables 11-13, cell line not given)
# Format: cell-based
Positions of bridges follow the written chain, without caps; N, C: chain ends. Non-standard residues stand in square brackets, D forms with d. Residues, ends and D or L forms follow the SMILES beside them. ξ: configuration not given here. NMeNle = CCCC[C@H](NC)C(=O)O; NMeA = CN[C@@H](C)C(=O)O; ξP = O=C(O)C1CCCN1
Kindly note that pIC50 refers to -log10 of the concentration in mol/L and answer with the value alone.

{"molecule": "CCCC[C@H]1C(=O)N(C)[C@@H](CCCC)C(=O)N[C@@H](CCCNC(=N)N)C(=O)N[C@H](C(=O)NCC(N)=O)CSCC(=O)N[C@@H](Cc2ccccc2)C(=O)N(C)[C@@H](C)C(=O)N[C@@H](CC(N)=O)C(=O)N2CCCC2C(=O)N[C@@H](Cc2cnc[nH]2)C(=O)N[C@@H](CC(C)C)C(=O)N(C)[C@@H](C)C(=O)N[C@@H](Cc2c[nH]c3ccccc23)C(=O)N[C@@H](CO)C(=O)N[C@@H](Cc2c[nH]c3ccccc23)C(=O)N1C (some centres unmarked) [Compound No. 13] ({CH2CO}-F[NMeA]N[ξP]HL[NMeA]WSW[NMeNle][NMeNle]RCG-NH2; thioether N-14)", "pIC50": 7.46}

Ask: Lab note: need pIC50 for CCCC[C@H]1C(=O)N(C)[C@@H](CCCC)C(=O)N[C@@H](CCCNC(=N)N)C(=O)N[C@H](C(=O)NCC(N)=O)CSCC(=O)N[C@@H](Cc2ccccc2)C(=O)N(C)[C@@H](C)C(=O)N[C@@H](CC(N)=O)C(=O)N2CCC[C@H]2C(=O)N[C@@H](Cc2cnc[nH]2)C(=O)N[C@@H](CC(C)C)C(=O)N2CCC[C@H]2C(=O)N[C@@H](Cc2c[nH]c3ccccc23)C(=O)N[C@@H](CO)C(=O)N[C@@H](Cc2c[nH]c3ccccc23)C(=O)N1C [Compound No. 55] ({CH2CO}-F[NMeA]NPHLPWSW[NMeNle][NMeNle]RCG-NH2; thioether N-14) on Hu PD-L1/PD-1 (Homo sapiens, UniProt Q9NZQ7), anyone have it?
Result: 8.52
